G/D (fold bias) listing for selected binders.
- Measured On: Matrix-associated proTGFβ1 (hLTBP1-proTGFβ1 and hLTBP3-proTGFβ1 complexes)
- Test Name: MSD-SET; cell average KD over ECM average KD
# answer = value followed by unit

Consider the following illustrative entries.
Binder	G/D (fold bias)
Ab12 (antibody, V domains shown) VH: QVQLVESGGGVVQPGRSLRLSCAASGFTFSDYAMVWVRQAPGKGLEWVSAISGSGFTTYYADSVKGRFTISRDNSKNTLYLQMNSLRAEDTAVYYCARVSSGHWDFDYWGQGTLVTVSS VL: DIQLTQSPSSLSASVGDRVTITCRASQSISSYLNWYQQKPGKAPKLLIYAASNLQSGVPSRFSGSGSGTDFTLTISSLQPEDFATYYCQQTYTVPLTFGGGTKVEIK	3.4 fold
Ab20 (antibody, V domains shown) VH: EVQLLESGGGLVQPGGSLRLSCAASGFTFSAYAMTWVRQAPGKGLEWVSAISGSGGVTYYADSVKGRFTISRDNSKNTLYLQMNSLRAEDTAVYYCARVSSGHWDYDYWGQGTLVTVSS VL: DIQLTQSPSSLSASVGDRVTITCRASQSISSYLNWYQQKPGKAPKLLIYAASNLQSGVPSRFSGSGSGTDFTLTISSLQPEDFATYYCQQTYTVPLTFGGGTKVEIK	6.75 fold
Ab19 (antibody, V domains shown) VH: QVQLVESGGGVVQPGRSLRLSCAASGFTFSSFAMTWVRQAPGKGLEWVSAISGSGAATYFADSVKGRFTISRDNSKNTLYLQMNSLRAEDTAVYYCARVSSGHWDFDEWGQGTLVTVSS VL: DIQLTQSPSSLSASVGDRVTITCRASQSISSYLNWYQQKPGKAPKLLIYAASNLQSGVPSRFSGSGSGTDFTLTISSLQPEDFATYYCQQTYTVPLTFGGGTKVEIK	1.68 fold

// below: G/D (fold bias) requested for another binder
Enquiry: // G/D (fold bias) lookup, key: Ab11 (antibody, V domains shown) VH: EVQLLESGGGLVQPGGSLRLSCAASGFTFRNYAMSWVRQAPGKGLEWVSSISGSGGATYYADSVKGRFTISRDNSKNTLYLQMNSLRAEDTAVYYCARVSSGHWDFDYWGQGTLVTVSS VL: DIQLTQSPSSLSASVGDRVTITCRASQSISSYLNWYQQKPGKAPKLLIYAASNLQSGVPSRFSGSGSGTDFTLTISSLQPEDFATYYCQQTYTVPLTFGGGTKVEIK
Return: 3.87 fold
